Measured MIC by item
- Test system: M. smegmatis mc^2155
- method: MIC, resazurin microtiter assay
- Assay type: cell-based
- run_parameters: Mycolicibacterium smegmatis, MC^2155, 7H9-ADC-0.05% Tween 80; read-out: MIC M. smeg. mc^2155

Worked set:
1. Cc1cc(C)c2cc(C(=O)NC3CCC(C)CC3)[nH]c2c1 (stereo not drawn) [Compound 29] : > 20 µg/mL
2. O=C(NCC12CC3CC(CC(C3)C1)C2)c1cc2ccccc2[nH]1 [Compound 8] : > 20 µg/mL
3. CCC12CC3CC(C1)CC(NC(=O)c1cc4ccccc4[nH]1)(C3)C2 [Compound 6] : > 20 µg/mL
4. CCCCCCCCNC(=O)c1cc2c(C)cc(C)cc2[nH]1 [Compound 33] : 2.5 to 5 µg/mL
5. CCCCCCCNC(=O)c1cc2ccccc2[nH]1 [Compound 17, N-heptyl-1H-indole-2-carboxamide] : > 25 µg/mL

Name the reported MIC value associated with the compound Cc1cc(C)c2cc(C(=O)NC3CCCC3)[nH]c2c1 [Compound 28]
5 µg/mL

Fill in: MIC of CC1CCC(NC(=O)c2cc3ccccc3[nH]2)CC1 (stereo not drawn) [Compound 14] is ___
> 25 µg/mL

Give its MIC value. Item: O=C(NC1CCCCC1)c1cc2ccccc2[nH]1 [Compound 12, N-cyclohexyl-1H-indole-2-carboxamide]
> 25 µg/mL

Reported MIC for CCC12CC3CC(C1)CC(NC(=O)c1cc4c(C)cc(C)cc4[nH]1)(C3)C2 [Compound 21] : what is it?
> 20 µg/mL

* * *

The following compounds are shown together with reported MIC values.
- Test system: M. smegmatis mc^2155
- method: MIC, resazurin microtiter assay
- Assay type: cell-based
- run_parameters: Mycolicibacterium smegmatis, MC^2155, 7H9-ADC-0.05% Tween 80; read-out: MIC M. smeg. mc^2155

1) Cc1cc(C)c2cc(C(=O)NC(C)C34CC5CC(CC(C5)C3)C4)[nH]c2c1 (centres unmarked) [Compound 22] : > 20 µg/mL
2) Cc1cc(C)c2cc(C(=O)NC34CC5CC(CC(C5)C3)C4)[nH]c2c1 [Compound 20] : 1.25 to 2.5 µg/mL

Would you mind telling me what MIC value was observed for CCCCCCCNC(=O)c1cc2c(C)cc(C)cc2[nH]1 [Compound 32] ?
5 µg/mL

* * *

- System: M. massiliense CRM 0019
- method: MIC, resazurin microtiter assay
- Assay type: cell-based
- run_parameters: Mycobacteroides abscessus, CRM0019, Mueller Hinton II; read-out: MIC M. massiliense CRM 0019
Recorded MIC, one value per entry.

# annotated cases, reported MIC shown
1. Cc1cc(C)c2cc(C(=O)NC3CCCCCC3)[nH]c2c1 : ≤ 0.06 µg/mL
2. C[C@@H]1[C@H]2C[C@@H](C[C@H]1NC(=O)c1cc3ccccc3[nH]1)C2(C)C : 0.06 µg/mL
3. CCCCCCCCNC(=O)c1cc2c(C)cc(C)cc2[nH]1 : > 32 µg/mL

// returns reported MIC for input O=C(NC1CCCCC1)c1cc2ccccc2[nH]1 [Compound 12, N-cyclohexyl-1H-indole-2-carboxamide]
> 32 µg/mL

Consider the compound Cc1cc(C)c2cc(C(=O)NC34CC5CC(CC(C5)C3)C4)[nH]c2c1 and give its measured MIC.
> 32 µg/mL

Suppose we examine the compound O=C(NC1CCCC1)c1cc2ccccc2[nH]1 [Compound 13, N-cyclopentyl-1H-indole-2-carboxamide] ; what MIC value has been reported?
> 32 µg/mL

Consider the compound Cc1cc(C)c2cc(C(=O)NC3CCCCC3)[nH]c2c1 and give its measured MIC.
0.25 µg/mL

Can you share its MIC? I mean this compound: CCC12CC3CC(C1)CC(NC(=O)c1cc4c(C)cc(C)cc4[nH]1)(C3)C2
> 32 µg/mL

Given the compound Cc1cc(C)c2cc(C(=O)NCC34CC5CC(CC(C5)C3)C4)[nH]c2c1 , what is its reported MIC?
> 32 µg/mL
